# Tested on: Escherichia coli TOP10
# procedure.summary: shrunken log2 fold change of peptide-encoding DNA abundance (4.5 h post-induction vs induction); higher = less antimicrobial activity (less host growth inhibition)
# assay.conditions: time post-induction: 4.5 h; library: site-saturation at positions 5, 18, 19, 20
measured.metric: shrunken log2 fold change
Give a plain numeric answer without units written out.

// known answers, use as guide
RRIRNRPPRLPRPRPRPTLVPRP; -0.0435
RRIRNRPPRLPRPRPRPLAEPRP; 0.108
RRIRKRPPRLPRPRPRPTLTPRP; 0.283

Kindly consider the entry below.
Problem: Record lookup: for Escherichia coli TOP10, what shrunken log2 fold change belongs to `RRIRPRPPRLPRPRPRPEGSPRP` ?
Solution: 0.0654

* * *

# Tested on: Escherichia coli TOP10
# procedure.summary: shrunken log2 fold change of peptide-encoding DNA abundance (4.5 h post-induction vs induction); higher = less antimicrobial activity (less host growth inhibition)
# assay.conditions: time post-induction: 4.5 h; library: site-saturation at positions 5, 18, 19, 20
measured.metric: shrunken log2 fold change

RRIRYRPPRLPRPRPRPYYDPRP; -0.15
RRIRVRPPRLPRPRPRPVYPPRP; -0.389
RRIRTRPPRLPRPRPRPWCNPRP; -0.0437
RRIRVRPPRLPRPRPRPNFFPRP; 0.0488
RRIRLRPPRLPRPRPRPHYAPRP; -0.133

Problem: Could you share which shrunken log2 fold change value was measured for `RRIRERPPRLPRPRPRPALIPRP` ?
Solution: 0.129

Problem: `RRIRVRPPRLPRPRPRPSKLPRP` , same question.
Solution: -0.797

Problem: Another sequence to check: `RRIRKRPPRLPRPRPRPDWAPRP`
Solution: -0.0624

Problem: Query `RRIRRRPPRLPRPRPRPDGKPRP` next
Solution: 0.0432

Problem: Try this sequence next: `RRIRMRPPRLPRPRPRPHRQPRP`
Solution: 0.532

Problem: Would you mind doing `RRIRPRPPRLPRPRPRPTRLPRP` as well?
Solution: 0.769

Problem: Would you kindly repeat that for `RRIRFRPPRLPRPRPRPRWWPRP` ?
Solution: 0.34

Problem: Subsequent entry: `RRIRKRPPRLPRPRPRPSRGPRP`
Solution: 0.741

Problem: Next record, please: `RRIRMRPPRLPRPRPRPNAMPRP`
Solution: 0.16

* * *

# Tested on: Escherichia coli TOP10
# procedure.summary: shrunken log2 fold change of peptide-encoding DNA abundance (4.5 h post-induction vs induction); higher = less antimicrobial activity (less host growth inhibition)
# assay.conditions: time post-induction: 4.5 h; library: site-saturation at positions 5, 18, 19, 20
Listed here: items and their measured shrunken log2 fold change.
Reply briefly: the number, and no unit.

// below: answered sequences
RRIRWRPPRLPRPRPRPQCQPRP; 0.129
RRIRYRPPRLPRPRPRPHIIPRP; -0.501
RRIRCRPPRLPRPRPRPCGFPRP; -0.29
RRIRYRPPRLPRPRPRPGILPRP; -0.0404
RRIRDRPPRLPRPRPRPPKIPRP; -0.0144
RRIRWRPPRLPRPRPRPDWHPRP; -0.0337
RRIRNRPPRLPRPRPRPSACPRP; -0.0258

Now, please, on to the next sequence.
Problem: Please tell me: shrunken log2 fold change of `RRIRARPPRLPRPRPRPRPPPRP` , system Escherichia coli TOP10?;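 note: peptides expressed intracellularly from a pBAD plasmid library in pooled LB shake-flask culture, induced with 0.3% L-arabinose, DNA abundance read by NGS, three biological replicates, DESeq2 with apeglm shrinkage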
Solution: 1.26

These data points were gathered from the supplement of paper PMC9112550.
